Measured glycan array binding signal (z-score) by item
# Tgt: Gal(b1-3)GalNAc(b1-4)Gal(b1-4)Glc
# Protocol description: glycan array binding signal (z-score within array); higher = stronger binding
# Condition set: glycan notation: IUPAC condensed, linker removed
The sample as a whole holds a higher share of the strongest signals than the screen did.
Write the number on its own, no unit after it.

Past entries and their recorded results:
1) CD34 (Homo sapiens), P28906 (protein) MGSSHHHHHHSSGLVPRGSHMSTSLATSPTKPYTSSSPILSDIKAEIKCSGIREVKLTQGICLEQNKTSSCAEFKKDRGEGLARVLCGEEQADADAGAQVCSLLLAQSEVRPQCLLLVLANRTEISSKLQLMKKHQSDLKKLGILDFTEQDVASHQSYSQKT : 0.08
2) CCL2 (Coprinopsis cinerea), B3GA02 (protein) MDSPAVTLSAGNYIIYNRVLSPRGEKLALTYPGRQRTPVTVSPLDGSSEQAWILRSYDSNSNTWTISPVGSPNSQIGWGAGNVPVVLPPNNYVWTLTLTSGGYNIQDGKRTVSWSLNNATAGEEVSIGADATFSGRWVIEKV : -0.293

Field: next binder
Input line: Using the record for Sp8391B-bot-388-20-388 (Bacteroides ovatus) (protein) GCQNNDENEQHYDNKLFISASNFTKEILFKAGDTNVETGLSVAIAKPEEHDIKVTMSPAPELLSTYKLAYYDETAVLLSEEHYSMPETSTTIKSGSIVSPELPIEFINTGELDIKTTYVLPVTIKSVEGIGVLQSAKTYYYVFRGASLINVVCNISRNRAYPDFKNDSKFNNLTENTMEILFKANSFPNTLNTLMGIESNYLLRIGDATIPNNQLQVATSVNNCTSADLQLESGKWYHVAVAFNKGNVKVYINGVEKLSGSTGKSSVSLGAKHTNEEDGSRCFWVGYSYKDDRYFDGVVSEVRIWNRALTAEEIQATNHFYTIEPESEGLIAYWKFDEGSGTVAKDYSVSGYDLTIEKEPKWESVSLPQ , report its glycan array binding signal (z-score).
Output line: 0.437
